The reported numbers originate from the Human Domainome abundance scans (Beltran et al. 2025).

B1: Intersectin-1, residues 909 to 971; numbered along this chain, Q15811 (parent)
chain: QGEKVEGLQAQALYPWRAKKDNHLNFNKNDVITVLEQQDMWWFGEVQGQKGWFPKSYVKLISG

Variants of: B1
Experiment: abundance fitness (aPCA) (normalised: wild type 0, dead -1); higher = more abundant; growth selection in yeast, the domain comes from the species named
Conditions: Homo sapiens
measured_metric: abundance fitness
Give bare numbers.

Below, each entry is followed by its recorded abundance fitness result.
> print(dat)
   change    measured.metric  endpoint.value
1    Q47F  abundance fitness           0.133
2    W16T  abundance fitness          -0.646
3    D30R  abundance fitness          -0.778
4     Q9Y  abundance fitness          -0.047
5    Q49Y  abundance fitness          -0.303
6     E3R  abundance fitness          -0.074

Lab note: each variant below needs its abundance fitness filled in.
1. K20T
2. L35V
3. M40L
4. E6P

-- reply
-0.079
-0.34
0.008
0.074

Lab note: each variant below needs its abundance fitness filled in.
1. W41H
2. A10C
3. Y57K
4. K4G
5. A10W
6. Y57A
7. L13D
8. H23M

-- reply
-0.36
-0.174
0.081
-0.588
-0.183
0.12
-0.158
-0.231
